Test system: SN12C renal
assay.remarks: NCI-60 one-dose screen, 48 h
condition.info: 10 µM unless noted
About 83,000 compounds went through this panel and 20% of them were active in at least one assay; those are over-represented in the sample as a whole. Active and inactive are the calls of the source. Rule for the calls: active = growth percent below 10; inactive = the rest.
Your answer must be one of the following: 1.0 = active, 0.0 = inactive

input: // param item: CC1CC(C)(C)OB(OC(C)CC(C)(C)OB2OC(C)CC(C)(C)O2)O1 (stereo not given) ; yields the recorded call
output: 0.0

input: In this assay, the call recorded for COc1cc2c(c(OC)c1OC)-c1ccc(NCc3ccccc3)c(=O)cc1[C@@H](NC(C)=O)CC2 was what?
output: 0.0

input: # fetch the recorded call for Cc1c(O)ccc(SC#N)c1C here
output: 0.0

input: Outcome logged for CCC(=O)c1cc([N+](=O)[O-])c(Br)s1 in this assay:
output: 0.0

input: Would you mind telling me which call this test gave O=C(c1ccccc1)C(O)C(Br)(CBr)c1ccccc1 (stereo not given) ?
output: 0.0

input: Status in this test for CCOc1cc(F)c([N+](=O)[O-])cc1[N+](=O)[O-] ?
output: 0.0

input: Status in this test for O=C(Cc1nc2cc(Cl)c(Cl)cc2nc1CC(=O)c1cccnc1)c1cccnc1 ?
output: 0.0

input: Lab log entry: CCCCCCCCCCCCCCCCSC(=NCC)NCC — outcome as called in the assay?
output: 0.0

input: Query: recorded result category for CC(C)(C)c1ccc(O)c(Br)c1 in this test
output: 0.0

input: Outcome? CC1(C)CCCC2=C1C(=O)N(SC(Cl)(Cl)Cl)C2=O
output: 0.0

input: What call does the record list for CC1C(c2ccccc2)OCCN1C(=S)Nc1ccc(S(=O)(=O)N2CCCCC2)cc1 (stereo not given) ?
output: 0.0

input: Entry CN(C)CCSC1=Nc2ccc(Cl)cc2C(c2ccccc2Cl)N(C)C1 (stereo not given) : call = ?
output: 0.0

input: Just curious, what result did C/C(=N\NC(=S)N1CC2CCC(CC2)C1)c1ccccn1 get here?
output: 1.0

input: Can you look up the reported call for S=c1[nH]c2cc(Cl)ccc2s1 for me?
output: 0.0

input: So what was the verdict on COc1ccc2nc3cc([N+](=O)[O-])ccc3c(NNc3ccccc3)c2c1 in this test?
output: 0.0

input: Per the records of this test, what outcome belongs to CCOc1ccc2c(c1)/C(=C\C=C\C1CC(C)C3CC(OCC)CCC3N1CC)CC(C)N2CC (stereo not given) ?
output: 1.0

input: Short answer needed: outcome of this test for Oc1ccc2ccccc2c1N=Nc1ccccn1 ?
output: 0.0

input: Record request — test call for O=C1C=CC(=O)N1C1CCCCCCCCCCC1
output: 0.0

input: Identify the outcome logged in this assay for the compound shown: NNc1ccc(Cl)cc1Cl
output: 0.0

input: Returns: the outcome recorded for O=[N+]([O-])c1ccc(N2CCN(Cc3ccccc3)CC2)c2c1no[n+]2[O-] in this assay.
output: 0.0

input: Dear all, I need the recorded test outcome for CCN(CC)CC(O)c1cc(-c2ccc(Cl)cc2)nc2cc(Cl)ccc12 (stereo not given) , thank you.
output: 0.0

input: Please indicate how the test categorized CCN(CC)CCNc1ccc([N+](=O)[O-])c2sc3ccccc3c(=O)c12 .
output: 0.0

input: Tell me the assay call for Cc1ccccc1NC(=O)Cc1csc2[n+]1C(=O)/C(=C/c1ccc([N+](=O)[O-])cc1)S2 please.
output: 0.0

input: Fill in: this test's call for N#CC(=C1SCS1)[N+](=O)[O-] is ___
output: 0.0

input: Hi team, can someone confirm the assay call for CCCCCCN(CCCCCC)CCCNc1nccc2ccccc12 ?
output: 0.0

input: Outcome? CN(C)c1ccc(/C=C/c2nccc3ccccc23)cc1
output: 0.0

input: What is the recorded call for this compound in the test? CCCCCCCCc1cc(Cl)c(O)c(Cl)c1
output: 0.0

input: Write down the call the test reported for this compound. Item: O=C1C=CC(=O)N1c1cccc2c1CCCC2
output: 0.0

input: Hi, do you know how CCN1/C(=C/C(C)=C/c2sc3ccc4ccccc4c3[n+]2CC)Sc2ccc3ccccc3c21 came out in this test?
output: 1.0

input: Which result was noted for this compound in the test: O=C1C=CC(O)=CC1=P(c1ccccc1)(c1ccccc1)c1ccccc1
output: 0.0

input: Each compound tested received a call. Report the one for CCCOS(=O)(=O)c1ccccc1 .
output: 0.0

input: Answer briefly: the call reported for CSc1nc(C)c(C(=O)CCN2CCN(c3ccccn3)CC2)s1 in this assay.
output: 0.0

input: Hi, do you know how NC(=S)N/N=C/c1ncccc1O came out in this test?
output: 0.0

input: Each compound tested received a call. Report the one for CCOC(=O)NC(/C=C/c1ccccc1)NC(=O)OCC .
output: 0.0

input: Hi team, can someone confirm the assay call for CCCC[n+]1c(/C=C\c2c(OC)cc(OC)cc2OC)ccc2ccccc21 ?
output: 1.0

input: # fetch the recorded call for O=C(OC12CC3CC(CC(C3)C1)C2)c1ccc(NCc2cc(O)ccc2O)cc1 here
output: 1.0

input: What did this assay record as the result for Nc1ccc(Oc2ccccc2)c(Cl)c1 ?
output: 0.0

input: What is the recorded call for this compound in the test? CC(C)(C)c1ccc(CCO)cc1
output: 0.0

input: // return assay outcome for Cc1cc(C(=O)c2ccc(Cl)cc2)ccc1O
output: 0.0

input: // return assay outcome for CN1CCC(CN2c3ccccc3Sc3ccccc32)C1 (stereo not given)
output: 0.0

input: Would you mind telling me which call this test gave Cc1ccc(NC2=CC(=O)C(=O)c3ccccc32)cc1 ?
output: 1.0

input: Hi, sorry to bother you, what did the test record for NC(=S)N/N=C\c1nccc2c(C(F)(F)F)cccc12 ?
output: 0.0

input: Outcome? COc1cc(/C=C2\SC(=S)N(/C=C/c3nc4ccccc4[nH]c3=O)C2=O)cc(OC)c1OC
output: 0.0

input: Look up the recorded call for CC(C)Nc1ccc(Nc2ccc(NC(C)C)cc2)cc1 in this test.
output: 0.0

input: Assay result, entry O=C(Nc1ccc(Cl)c(Cl)c1)OCc1ccco1 — outcome?
output: 0.0

input: Record lookup: outcome of this test for Oc1ccc2ccccc2c1N=Nc1nccs1 ?
output: 0.0

input: Kindly provide the recorded test outcome for the following compound: S=C(S)OCN1CCOCC1
output: 0.0

input: Assay outcome for CC(=O)OC1CC2CCC1(C)C2(C)C (stereo not given) : what was it?
output: 0.0

input: I would be grateful if you could indicate the recorded call for O=C1C=CC(=O)N1c1ccc(O)cc1 .
output: 0.0

input: GET /call?item= Cc1cc2cccnc2c2ncccc12 returns the recorded outcome of this test.
output: 0.0

====

Tested on: OVCAR-3 ovarian
assay.remarks: NCI-60 one-dose screen, 48 h
condition.info: 10 µM unless noted
This is part of a sample that, as a whole, favours compounds with a hit. Of some 83,000 tested, about 20% had one in any assay. Activity calls are given as the source filed them. The calls were made as follows: active = growth percent below 10; inactive = the rest.
# output must be one of active, inactive

input: Look up the recorded call for CCNc1nnnn1CC in this test.
output: inactive

input: What outcome does the record of this test show for COc1ccc(/C=C2/C(=O)ON=C2C)cc1 ?
output: inactive

input: Hello, I am checking results. What call was entered for Cc1nnc(N/N=C/c2ccc([N+](=O)[O-])o2)[nH]c1=O ?
output: active

input: Please state the recorded outcome for this molecule: CCC1CCCCN1C(=S)N/N=C(\C)c1ccccn1 (stereo not drawn)
output: active

input: // return assay outcome for COC(=O)c1nc(=S)[nH]c(C(=O)OC)c1C(=O)c1ccc(Cl)c(Cl)c1
output: inactive

input: For CCCCCCCCCCCCCCCc1ccc(C(=O)C[n+]2ccccc2)cc1 , which call appears in the assay record?
output: active

input: Assay outcome for O=C1C=CC(=O)N1c1cccc2c1CCCC2 : what was it?
output: inactive

input: Called result for CN(Cc1ccccc1)c1ccc(SC#N)cc1
output: inactive

input: Identify the outcome logged in this assay for the molecule shown: Oc1ccc2c(c1)CCc1ccccc1-2
output: inactive

input: # lookup: test call for CCCCCCCCCCCCCCCCSC(=NCC)NCC
output: active

input: # lookup: test call for CN(C)c1ccc2cc3c(cc2c1)Oc1ccccc1N3.[Cl][Zn][Cl]
output: inactive

input: Can you look up the reported call for NC(CS/C(Cl)=C/Cl)C(=O)O (stereo not drawn) for me?
output: inactive

input: Test call for this molecule, please: Cn1c(-c2ccccc2)c(/C=C/C2=[N+](C)c3ccccc3C2(C)C)c2ccccc21
output: active

====

Test system: COLO 205 colon
assay.remarks: NCI-60 one-dose screen, 48 h
condition.info: 10 µM unless noted
About 83,000 compounds went through this panel and 20% of them were active in at least one assay; those are over-represented in the sample as a whole. Active and inactive are the calls of the source. Rule for the calls: active = growth percent below 10; inactive = the rest.
Field 'call' accepts t for active, f for inactive

input: Answer briefly: the call reported for N=C(N)Sc1cccc[n+]1[O-] in this assay.
output: f

input: Please indicate how the test categorized Cc1ccccc1NC(=O)Cc1csc2[n+]1C(=O)/C(=C/c1ccc([N+](=O)[O-])cc1)S2 .
output: f

input: Recorded test call requested for CN(C)c1ccc(C(=C2C=CC(=[N+](C)C)C=C2)c2ccc(N(C)C)cc2)cc1
output: t

input: I would be grateful if you could indicate the recorded call for O=C(c1ccccc1)C(Br)[N+](=O)[O-] (stereo not given) .
output: f

input: Hey, what did the test say about CCOc1ccc(Nc2nc3c(s2)C(=O)c2ccccc2C3=O)cc1 ?
output: f

input: What is the recorded call for this compound in the test? COC1CC(C)C(OC)c2cc(O)cc(c2O)NC(=O)/C(C)=C/C=C\C(C)C(OC(N)=O)/C(C)=C\C(C)C1OC (stereo not given)
output: t

input: Short answer needed: outcome of this test for CCOC(=O)C1=NN(c2ccccc2)C(=O)/C1=C\N1C(=O)/C(=C/c2cccc(O)c2)SC1=S ?
output: f

input: Hi, do you know how O=C(O)c1cc2c(s1)C(=O)c1sccc1C2=O came out in this test?
output: f

input: Can you look up the reported call for CN=C(N)N/N=C(\C)c1ccc2c(c1)Cc1ccccc1-2 for me?
output: t

input: Which outcome was entered for the compound CCCCCCCCCCCCCCCc1ccc(C(=O)C[n+]2ccccc2)cc1 in this test?
output: t
